Molecular target: EML4-ALK fusion protein v1 (Homo sapiens (Human), UniProt Q9UM73)
Sequence (Q9UM73 other isoform, or with tags, fused parts or gaps): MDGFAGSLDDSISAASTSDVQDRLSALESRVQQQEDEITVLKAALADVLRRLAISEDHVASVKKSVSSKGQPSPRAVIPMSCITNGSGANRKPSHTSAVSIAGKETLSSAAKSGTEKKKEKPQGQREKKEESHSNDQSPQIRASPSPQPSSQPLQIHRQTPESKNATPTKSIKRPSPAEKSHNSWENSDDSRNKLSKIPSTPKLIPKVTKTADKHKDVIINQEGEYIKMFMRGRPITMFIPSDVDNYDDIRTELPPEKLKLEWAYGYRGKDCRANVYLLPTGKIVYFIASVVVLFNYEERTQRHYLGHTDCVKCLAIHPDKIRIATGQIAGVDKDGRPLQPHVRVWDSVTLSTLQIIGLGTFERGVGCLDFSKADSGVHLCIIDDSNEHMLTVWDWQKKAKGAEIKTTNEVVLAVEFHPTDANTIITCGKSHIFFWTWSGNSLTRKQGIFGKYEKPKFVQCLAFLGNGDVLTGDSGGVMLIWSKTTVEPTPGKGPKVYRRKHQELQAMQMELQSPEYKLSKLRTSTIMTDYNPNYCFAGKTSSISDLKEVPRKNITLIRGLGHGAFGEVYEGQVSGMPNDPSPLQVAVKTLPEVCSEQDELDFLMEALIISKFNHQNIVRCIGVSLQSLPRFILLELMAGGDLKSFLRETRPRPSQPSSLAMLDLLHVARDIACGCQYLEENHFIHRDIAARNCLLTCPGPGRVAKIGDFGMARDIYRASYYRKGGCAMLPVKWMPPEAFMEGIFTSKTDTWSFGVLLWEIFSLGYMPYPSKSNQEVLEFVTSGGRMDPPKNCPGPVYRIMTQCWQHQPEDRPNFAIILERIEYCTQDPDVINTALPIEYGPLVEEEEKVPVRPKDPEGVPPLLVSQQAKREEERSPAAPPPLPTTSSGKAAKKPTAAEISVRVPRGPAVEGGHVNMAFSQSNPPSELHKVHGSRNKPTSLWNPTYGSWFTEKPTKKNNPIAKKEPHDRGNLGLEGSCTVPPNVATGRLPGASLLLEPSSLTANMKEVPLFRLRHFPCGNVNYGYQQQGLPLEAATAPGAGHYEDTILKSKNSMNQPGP
Assay: Inhibitory activity against the kinase activity of EML4-ALK fusion protein (HTRF KinEASE-TK)
Details: ATP 100 μM, reaction 1 hour
pIC50: −log10 of the molar value.
# binarize pIC50: threshold 8 inclusive, high side yes (1), low side no (0)

compound | class-label
CCc1nc(C(N)=O)c(Nc2ccc(N3CCC(N4CCN(C)CC4)CC3)c(OC)c2)nc1N[C@H]1CC[C@H](O)CC1 | yes (1)
CC(C)c1nc(C(N)=O)c(Nc2ccc(N3CCN(C)CC3)cc2)nc1N[C@H]1CC[C@H](O)CC1 | yes (1)
CC(C)c1nc(C(N)=O)c(Nc2ccc(N3CCN(C)CC3)cc2)nc1NC1CCOCC1 | yes (1)
NC(=O)c1cnc(N[C@@H]2CCCC[C@@H]2N)nc1Nc1ccc(-c2ccc(N3CCOCC3)cc2)cc1 (racemic) [Compound X, reference compound] | no (0)
CCc1nc(C(N)=O)c(Nc2ccc(N3CCN(C)CC3)cc2)nc1N[C@H]1CC[C@H](O)CC1 | yes (1)
CCc1nc(C(N)=O)c(Nc2ccc(N3CCC(N4CCN(C)CC4)CC3)c(C)c2)nc1N[C@H]1CC[C@H](O)CC1 | yes (1)

---

System: BA/F3 cells expressing EML4-ALK fusion protein v1
Experiment: Growth inhibitory activity against EML4-ALK fusion protein-dependent cells
Assay type: cell-based, mouse
Settings: Mus musculus, BaF3, 48 h, growth of EML4-ALK fusion protein v1-expressing BA/F3 cells, cultured 2 days
pIC50: −log10 of the molar value.

molecule | relational-operator | pIC50
CC(C)c1nc(C(N)=O)c(Nc2ccc(N3CCC(N4CCN(C)CC4)CC3)c(C(F)(F)F)c2)nc1N[C@H]1CC[C@H](O)CC1 [Example 388] | = | 8.39
CCc1nc(C(N)=O)c(Nc2ccc(N3CCN(C4CCN(C)CC4)CC3)c(C)c2)nc1NC1CCOCC1 [Example 558] | = | 7.80
CCc1nc(C(N)=O)c(Nc2ccc(N3CCC(N4CCN(C)CC4)CC3)cc2)nc1N[C@H]1CC[C@H](O)CC1 [Example 341] | = | 7.96
CCc1nc(C(N)=O)c(Nc2ccc(N3CCN(C)CC3)c(C(F)(F)F)c2)nc1N[C@H]1CC[C@H](O)CC1 [Example 354] | = | 8.07
CCc1nc(C(N)=O)c(Nc2ccc(OC)c(N3CCN(C)CC3)c2)nc1N[C@H]1CC[C@H](O)CC1 [Example 383] | = | 8.23
CCc1nc(C(N)=O)c(Nc2ccc(N3CCC(N4CCN(C)CC4)CC3)c(C(F)(F)F)c2)nc1N[C@H]1CC[C@H](O)CC1 [Example 370] | = | 8.31
CCc1nc(C(N)=O)c(Nc2ccc(N3CCN(CC4CC4)CC3)c(C(F)(F)F)c2)nc1N[C@H]1CC[C@H](O)CC1 [Example 399] | = | 7.96
CCOc1cc(Nc2nc(N[C@H]3CC[C@H](O)CC3)c(CC)nc2C(N)=O)ccc1N1CCC(N2CCN(C)CC2)CC1 [Example 459] | = | 8.09
CCc1nc(C(N)=O)c(Nc2cccc(S(C)(=O)=O)c2)nc1N[C@H]1CC[C@H](O)CC1 [Example 86] | = | 7.17
CCc1nc(C(N)=O)c(Nc2ccc(N3CCN(C)CC3)cc2)nc1NC1CCOCC1 [Example 545] | = | 7.60
CCc1nc(C(N)=O)c(Nc2cccc(C)c2)nc1NCCN(C)C [Compound Y, reference compound] | < | 6.00
CCc1nc(C(N)=O)c(Nc2ccc(N3CCC(N4CCN(C)CC4)CC3)cc2OC)nc1N[C@H]1CC[C@H](O)CC1 [Example 284] | = | 7.07
CCc1nc(C(N)=O)c(Nc2ccc(N3CCN(C)CC3)c(OC)c2)nc1N[C@H]1CC[C@H](O)CC1 [Example 355] | = | 8.04
CCc1nc(C(N)=O)c(Nc2ccc(N3CCC(N4CCN(C)CC4)CC3)c(C)c2)nc1N[C@H]1CC[C@](C)(O)CC1 [Example 466] | = | 8.03

---

This listing pairs compounds with measured IC50.
Target: EML4-ALK fusion protein v1 (Homo sapiens (Human))
Assay: Inhibitory activity against the kinase activity of EML4-ALK fusion protein (HTRF KinEASE-TK)
Details: ATP 100 μM, reaction 1 hour
result-type: IC50 (nM)

compound | relational-operator | value-reported
CCc1nc(C(N)=O)c(Nc2ccc(N3CCC(N(C)C)C3)c(C(F)(F)F)c2)nc1N[C@H]1CC[C@H](O)CC1 (some centres unmarked) | = | 0.34
CCc1nc(C(N)=O)c(Nc2ccc(N3CCC(N4CCN(C)CC4)CC3)c(C)c2)nc1N[C@H]1CC[C@](C)(O)CC1 | = | 0.93
CCc1nc(C(N)=O)c(Nc2cccc(C)c2)nc1NCCN(C)C [Compound Y, reference compound] | > | 1000
CCc1nc(C(N)=O)c(Nc2ccc(N3CCN(C(C)C)CC3)c(C)c2)nc1N[C@H]1CC[C@H](O)CC1 | = | 0.49
CCc1nc(C(N)=O)c(Nc2ccc(N3CCC(N4CCN(C)CC4)CC3)cc2OC)nc1N[C@H]1CC[C@H](O)CC1 | = | 8.9
CCc1nc(C(N)=O)c(Nc2ccc(N3CCN(C)CC3)cc2)nc1NC1CCOCC1 | = | 11
CCc1nc(C(N)=O)c(Nc2ccc(N3CCC(N4CCN(C)CC4)CC3)c(C)c2)nc1NC1CCC(O)(CC)CC1 (centres unmarked) [Example 491] | = | 2.8
CCc1nc(C(N)=O)c(Nc2ccc(N3CCN(CC4CC4)CC3)c(C(F)(F)F)c2)nc1N[C@H]1CC[C@H](O)CC1 | = | 0.94
CCc1nc(C(N)=O)c(Nc2ccc(OC)c(N3CCN(C)CC3)c2)nc1N[C@H]1CC[C@H](O)CC1 | = | 0.23
CCOc1cc(Nc2nc(N[C@H]3CC[C@H](O)CC3)c(CC)nc2C(N)=O)ccc1N1CCC(N2CCN(C)CC2)CC1 | = | 0.26
CCc1nc(C(N)=O)c(Nc2ccc(N3CCC(N4CCN(C)CC4)CC3)cc2)nc1NC1CCOCC1 | = | 7.8
CC(C)c1nc(C(N)=O)c(Nc2ccc(N3CCC(N4CCN(C)CC4)CC3)cc2)nc1NC1CCOCC1 | = | 2.1
CCc1nc(C(N)=O)c(Nc2ccc(N3CCC(N4CCN(C)CC4)CC3)c(C(F)(F)F)c2)nc1N[C@H]1CC[C@H](O)CC1 | = | 0.65
CCc1nc(C(N)=O)c(Nc2ccc(N3CCN(C)CC3)c(F)c2)nc1NC1CCOCC1 | = | 11

---

System: BA/F3 cells expressing EML4-ALK fusion protein v1
Experiment: Growth inhibitory activity against EML4-ALK fusion protein-dependent cells
Type: cell-based, mouse
Settings: Mus musculus, BaF3, 48 h, growth of EML4-ALK fusion protein v1-expressing BA/F3 cells, cultured 2 days
pIC50: −log10 of the molar value.
result-type: pIC50

molecule | result-type | value-reported
CC(C)c1nc(C(N)=O)c(Nc2ccc(N3CCC(N4CCN(C)CC4)CC3)cc2)nc1NC1CCOCC1 [Example 549] | pIC50 | 7.85
CCc1nc(C(N)=O)c(Nc2ccc(N3CCC(N(C)C)C3)c(C(F)(F)F)c2)nc1N[C@H]1CC[C@H](O)CC1 (stereo partly drawn) [Example 406] | pIC50 | 8.01
CCc1nc(C(N)=O)c(Nc2ccc(N3CCC(N4CCN(C)CC4)CC3)c(C)c2)nc1NC1CCOCC1 [Example 512] | pIC50 | 7.72
CCc1nc(C(N)=O)c(Nc2ccc(N3CCN(C)CC3)cc2)nc1N[C@H]1CC[C@H](O)CC1 [Example 325] | pIC50 | 7.70
CCc1nc(C(N)=O)c(Nc2ccc(N3CCN(C)CC3)c(C)c2)nc1N[C@H]1CC[C@H](O)CC1 [Example 377] | pIC50 | 8.16
CCc1nc(C(N)=O)c(Nc2ccc(N3CCC(N4CCN(C)CC4)CC3)c(C)c2)nc1N[C@H]1CC[C@H](O)CC1 [Example 378] | pIC50 | 8.21
CCc1nc(C(N)=O)c(Nc2ccc(N3CCC(N4CCN(C)CC4)CC3)c(C)c2)nc1N[C@H]1CC[C@@](C)(O)CC1 [Example 392] | pIC50 | 8.20
CC(C)c1nc(C(N)=O)c(Nc2ccc(N3CCN(C)CC3)cc2)nc1N[C@H]1CC[C@H](O)CC1 [Example 343] | pIC50 | 7.96
Cc1cc(Nc2nc(N[C@H]3CC[C@H](O)CC3)c(Cl)nc2C(N)=O)ccc1N1CCC(N2CCN(C)CC2)CC1 [Example 538] | pIC50 | 8.11
CC(C)c1nc(C(N)=O)c(Nc2ccc(N3CCN(C)CC3)cc2)nc1NC1CCOCC1 [Example 554] | pIC50 | 7.85
CCc1nc(C(N)=O)c(Nc2ccc(N3CCC(N4CCN(C)CC4)CC3)c(C)c2)nc1NC1CCC(O)(CC)CC1 (stereo not drawn) [Example 490] | pIC50 | 7.74
CCc1nc(C(N)=O)c(Nc2ccc3cnn(C)c3c2)nc1N[C@H]1CC[C@H](O)CC1 [Example 328] | pIC50 | 7.12
CCc1nc(C(N)=O)c(Nc2ccc(N3CCC(N4CCN(C)CC4)CC3)cc2)nc1NC1CCOCC1 [Example 546] | pIC50 | 7.64
CCc1nc(C(N)=O)c(Nc2ccc(N3CCC(N4CCN(C)CC4)CC3)c(OC)c2)nc1N[C@H]1CC[C@H](O)CC1 [Example 340] | pIC50 | 8.02
CCc1nc(C(N)=O)c(Nc2ccc(N3CCN(C(C)C)CC3)c(C)c2)nc1N[C@H]1CC[C@H](O)CC1 [Example 426] | pIC50 | 7.96
